System: SK-MEL-28
Test: NCI tumour cell line growth inhibition, 48 h
Active and inactive are the calls of the source. No stated cut-off is given here; in the data, active = GI50 up to about 1.1 µM and inactive = higher.
readout kind: GI50

Cc1c(C(=O)/C=C/c2ccc(Cl)cc2)[n+]([O-])c2ccccc2[n+]1[O-]    17 µM (inactive)
COc1ccc(OCC(=O)O)c2c1CCC(C(C)C)C2=O (centres undefined)    > 100 µM (inactive)
COc1ccc(/C=N/N=C(\N)NO)cc1F    > 100 µM (inactive)

// moving on: another record for GI50
Fill in the blank: the reported GI50 of "Cc1nn2c(nc1=O)sc1ccc3ccccc3c12" is ____.
> 100 µM (inactive)

====

Tested on: BT-549
Assay: NCI tumour cell line growth inhibition, 48 h
The source made the active and inactive calls. Rule as the data show it: active = GI50 up to about 1.1 µM and inactive = higher.
readout kind: GI50

Would you please look over these solved cases?
Cc1cccc2c(N)c3cccc(C(=O)NCCCNCCN)c3nc12    14.6 µM (inactive)
O=C(NNC(=S)Nc1ccccc1)c1cc(-c2ccccc2)nc2ccccc12    21.6 µM (inactive)
O=C(O)CSc1ccn(Cc2ccccc2)c1    > 100 µM (inactive)
COC(=O)c1ccccc1/C=C1\Cc2c(ccc3c2CCC3)C1=O    > 100 µM (inactive)

// moving on: another record for GI50
Fill in the blank: the reported GI50 of CC(C)C(Nc1ncnc2nc[nH]c12)C(=O)O (stereo not given) is ____.
> 100 µM (inactive)
